STUDY_SYSTEM: Bcl-xL, Q07817
Sequence (Q07817 1-209): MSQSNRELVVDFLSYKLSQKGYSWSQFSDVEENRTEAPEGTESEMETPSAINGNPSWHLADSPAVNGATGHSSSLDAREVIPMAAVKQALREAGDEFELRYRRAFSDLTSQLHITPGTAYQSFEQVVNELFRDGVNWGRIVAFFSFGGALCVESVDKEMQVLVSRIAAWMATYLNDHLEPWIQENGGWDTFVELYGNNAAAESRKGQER
EXPERIMENTAL_DETAILS: peptide SPOT array, c-Myc-tagged receptor at 1 uM or 100 nM, anti-c-Myc-Cy3
MEASUREMENT_TYPE: SPOT signal as a fraction of Bim BH3's signal on the same receptor and array

# annotated cases, reported SPOT signal as a fraction of Bim BH3's signal on the same receptor and array shown
>>> df
                                binder  test_value
0  AELEVECATQDRRFGDKLNFRQKLLN [PMAIP1]        0.06
1    DSLAKFAGRKLKDCLEDLLVEISEVL [PCM1]        0.02
2    FMEKLDNGALLCQLAETMQEKFKESM [GAS2]        0.03
3   VLELHPGAQRDHIGCDEVYYLGEGEA [HEXDC]        0.05

1: ISSYMVLAPVFGYLLDRYNRKYLMCG [SPNS1]
2: VFERCELARTLKRLLMDGYRGISLAN [LYZ]
Lab note: check whether 1 or 2 has the lower measured SPOT signal as a fraction of Bim BH3's signal on the same receptor and array. Identify your pick by its label.
2

These entries and their values trace back to paper PMC4072508.
